target.entity: Factor X (FX), P00742
Sequence (P00742 whole entry, looked up): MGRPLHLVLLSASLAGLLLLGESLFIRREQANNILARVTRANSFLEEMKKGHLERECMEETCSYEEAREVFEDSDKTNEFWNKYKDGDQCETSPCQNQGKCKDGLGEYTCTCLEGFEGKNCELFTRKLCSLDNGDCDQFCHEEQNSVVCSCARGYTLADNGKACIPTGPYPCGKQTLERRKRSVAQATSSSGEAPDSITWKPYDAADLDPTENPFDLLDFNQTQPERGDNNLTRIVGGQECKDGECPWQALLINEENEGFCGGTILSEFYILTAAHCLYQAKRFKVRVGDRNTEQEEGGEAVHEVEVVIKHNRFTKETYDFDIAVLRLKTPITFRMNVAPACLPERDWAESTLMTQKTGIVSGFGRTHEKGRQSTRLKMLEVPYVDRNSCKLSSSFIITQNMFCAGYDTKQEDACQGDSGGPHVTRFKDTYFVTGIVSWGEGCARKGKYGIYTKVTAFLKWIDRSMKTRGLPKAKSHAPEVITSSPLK
observable: kcat/KM (M⁻¹ s⁻¹)
// units = M⁻¹ s⁻¹; emit number, no label

(Q) Report kcat/KM, nothing else, for this protein: FIXa-D104N/K106S/Y155F/K247N/N249S/R318Y/R338E/R403E/E410N (protein) chain 1: YNSGKLEEFVQGNLERECMEEKCSFEEAREVFENTERTTEFWKQYVDGDQCESNPCLNGGSCKDDINSYECWCPFGFEGKNCELDVTCNIKNGRCEQFCKNSANNSVVCSCTEGYRLAENQKSCEPAVPFPCGRVSVSQTSKLTR chain 2: VVGGEDAKPGQFPWQVVLNGKVDAFCGGSIVNEKWIVTAAHCVETGVKITVVAGEHNIEETEHTEQNRSVIRIIPHHNYNAAINKYNHDIALLELDEPLVLNSYVTPICIADKEYTNIFLKFGSGYVSGWGRVFHKGYSALVLQYLRVPLVDRATCLESTKFTIYNNMFCAGFHEGGRDSCQGDSGGPHVTEVEGTSFLTGIISWGEECAMKGKYGIYTKVSEYVNWIKNKTKLT
(A) 1.3e+08
